Below, each entry is listed with its recorded EC50.
Test system: SARS-CoV-2
test.summary: microbe, parasite or virus in culture
Type: cell-based
protocol.conditions: Severe acute respiratory syndrome coronavirus 2, Calu-3, geometric mean of replicates; read-out: Calu-3 CoV-2 EC50 GeoMean

[[record]]
compound = "CN(C)C(C(=O)Nc1ccc2c(=O)[nH]ccc2c1)c1ccsc1 (stereo not drawn)"
endpoint = "EC50"
measured_result = "> 3.51 µM"


Short answer please: EC50, SARS-CoV-2, entry CSc1ccc(CN2CCCC(Nc3ccc4[nH]ncc4c3)C2)cc1 (stereo not drawn)
> 3.55 µM

Record lookup: for SARS-CoV-2, what EC50 belongs to O=c1[nH]ccc2cc(OC3CCNCC3)ccc12 ?
> 3.85 µM

###

Test system: Calu-3 cells
test.summary: Uninfected Calu-3 48 h Cell-Titer Glo cytotoxicity counter screen
protocol.conditions: curve plateau at infinite concentration
Structures can show the parent of a compound that is named as a salt.
endpoint: Calu-3 uninfected cytotoxicity Sinf Average (%)
# number only, unit % dropped from output

Consider the reported Calu-3 uninfected cytotoxicity Sinf Average for these compounds:
[[record]]
compound = "CN1[C@@H]2CC[C@H]1C[C@@H](N1Cc3ccc4ccccc4c3C1=O)C2 [CR-3124]"
unit_label = "%"
measured_result = -100

[[record]]
compound = "CCC(CC)COC(=O)[C@H](C)N[P@](=O)(OC[C@H]1O[C@@](C#N)(c2ccc3c(N)ncnn23)[C@H](O)[C@@H]1O)Oc1ccccc1 [Remdesivir]"
unit_label = "%"
measured_result = -95

[[record]]
compound = "COc1ccc2cc1Oc1ccc(cc1)C[C@H]1c3cc(c(OC)cc3CCN1C)Oc1c(OC)c(OC)cc3c1[C@H](C2)N(C)CC3 [Hanfangchin A]"
unit_label = "%"
measured_result = -100

[[record]]
compound = "OCCN1CCN(CC/C=C2/c3ccccc3Sc3ccc(Cl)cc32)CC1 [Zuclopenthixol]"
unit_label = "%"
measured_result = -100

[[record]]
compound = "CCc1ccc2c(c1)N(CC(C)CN(C)C)c1ccccc1S2 (centres unmarked) [Ethylisobutrazine hydrochloride]"
unit_label = "%"
measured_result = -100

[[record]]
compound = "CN(C)CC1=C[CH]([Fe][CH]2C=CC=C2)C=C1CNc1ccnc2cc(Cl)ccc12 (centres unmarked) [Ferroquine]"
unit_label = "%"
measured_result = -100

[[record]]
compound = "C=CC(=O)Nc1cc(Nc2nccc(-c3cn(C)c4ccccc34)n2)c(OC)cc1N(C)CCN(C)C [AZD-9291/Osimertinib]"
unit_label = "%"
measured_result = -89


Now take the following compound into account.
Please state recorded Calu-3 uninfected cytotoxicity Sinf Average (tested on Calu-3 cells) of COc1cc2c(Nc3ccc(Cl)c(Cl)c3F)ncnc2cc1OC[C@@H]1C[C@@H]2CN(C)C[C@@H]2C1 [Tesevatinib, XL647, Kadmon Corporation]
-105

###

Tested on: HeLa-ACE2 cells
test.summary: cells
protocol.conditions: Homo sapiens, HeLa-ACE2, read-out: HeLa-ACE2 cell count EC50 GeoMean
Counter-ions that a name gives are not always drawn.
Listed here are compounds together with their documented EC50.

Hello, I am looking for reported EC50 with HeLa-ACE2 cells for COc1ccc2c(O[C@@H]3C[C@H]4C(=O)N[C@]5(C(=O)NS(=O)(=O)C6CC6)C[C@H]5/C=C\CCCCN(C)C(=O)[C@@H]4C3)cc(-c3nc(C(C)C)cs3)nc2c1C [Simeprevir] . Could you help?
> 9.47 µM

Item CCc1ccc(C2=CC(C)(C)Sc3ccc(C#Cc4ccc(C(=O)O)cc4)cc32)cc1 [AGN-194310] with HeLa-ACE2 cells - EC50?
> 9.59 µM

Report EC50 for CCCCN(CCCC)CCC(O)c1cc2c(Cl)cc(Cl)cc2c2cc(C(F)(F)F)ccc12 (stereo not drawn) [Halofantrine HCl] tested on HeLa-ACE2 cells.
> 6.19 µM

Please provide the recorded EC50 for CC[C@H]1OC(=O)[C@H](C)[C@@H](O[C@H]2C[C@@](C)(OC)[C@@H](O)[C@H](C)O2)[C@H](C)[C@@H](O[C@@H]2O[C@H](C)C[C@H](N(C)C)[C@H]2O)[C@](C)(O)C[C@@H](C)CN(C)[C@H](C)[C@@H](O)[C@]1(C)O [Azithromycin] , tested on HeLa-ACE2 cells.
> 9.59 µM
